Origin of measurements: ChEMBL document CHEMBL6078644

Tested on: A549
Assay: Cytotoxicity against human A549 cells assessed as reduction in cell viability incubated for 48 hrs with compound prepared under 365 nm UV light condition for 1 hrs by CellTIter blue reagent based fluorescence plate reader analysis
Catalogue of molecules with associated log10(IC50)
On a log10 scale: recorded IC50, unit µM.

# count of solved cases: 2
{"columns": ["Molecule", "log10(IC50)"],
 "data": [
  ["Cc1cc(C)cc(/N=N\\c2cccc(C(=O)N[C@@H](Cc3c[nH]c4ccccc34)C(=O)N[C@@H](CC(C)C)C(=O)N[C@H](/C=C/S(C)(=O)=O)CC(C)C)c2)c1", -0.38],
  ["CC(C)C[C@H](NC(=O)[C@H](Cc1ccc(/N=N\\c2ccccc2)cc1)NC(=O)OC(C)(C)C)B1OC2C[C@@H]3C[C@@H](C3(C)C)[C@@]2(C)O1 (stereo partly specified)", 1.82]
]}

Item: Cc1cc(C)cc(N=Nc2cccc(C(=O)N[C@@H](Cc3ccccc3)C(=O)N[C@@H](CC(C)C)C(=O)N[C@H](C=CS(C)(=O)=O)CC(C)C)c2)c1 | System: A549 | log10(IC50): 0.28

For the molecule CC(C)CC(NC(=O)[C@H](Cc1ccccc1)NC(=O)c1ccc(/N=N\c2ccccc2)cc1)B(O)O (stereo partly specified) , the measured log10(IC50) on A549 was 1.24

With A549 as the test system, Cc1cc(C)cc(/N=N\c2cccc(C(=O)N[C@H](C(=O)N[C@@H](Cc3ccccc3)C(=O)N[C@H](/C=C/S(C)(=O)=O)CC(C)C)C(C)C)c2)c1 showed log10(IC50) of 0.84

Entry Cc1cc(C)cc(/N=N\c2cccc(C(=O)N[C@@H](CC(C)C)C(=O)N[C@@H](CC(C)C)C(=O)N[C@H](/C=C/S(C)(=O)=O)CC(C)C)c2)c1 , A549 data, log10(IC50) value: -0.14
